Measured values drawn from patent EP3876933B1 for this set.

System: human neutrophils
Experiment: Superoxide anion (O2˙-) generation in fMLF/CB-activated human neutrophils (SOD-inhibitable ferricytochrome c reduction)
Type: cell-based
Settings: Neutrophil; FMLP/CB-induced human neutrophils; mean ± S.E.M. (n = 3-5); read-out: Superoxide Anion IC50
pIC50: −log10 of the molar value.
// label = Yes if pIC50 is not less than 6, otherwise No

cpdSmiles: COc1cccc(Nc2nc3ccccc3c3c2c(N)nn3C)c1
assignedClass: No
//
cpdSmiles: Cc1ccc(Nc2nc3ccccc3c3c2c(N)nn3C)cc1
assignedClass: No
//
cpdSmiles: COc1ccc(Nc2nc3ccccc3c3c2c(N)nn3C)cc1
assignedClass: Yes
//
cpdSmiles: COc1cccc(Nc2nc3ccccc3c3onc(N)c23)c1
assignedClass: No
//
cpdSmiles: Nc1noc2c1c(Nc1ccc(O)cc1)nc1ccccc12
assignedClass: Yes
//
cpdSmiles: COc1ccccc1Nc1nc2ccccc2c2onc(N)c12
assignedClass: No
//
cpdSmiles: Nc1noc2c1c(Nc1ccccc1O)nc1ccccc12
assignedClass: No
//
cpdSmiles: Cn1nc(N)c2c(Nc3cccc(O)c3)nc3ccccc3c21
assignedClass: No
//
cpdSmiles: Cn1nc(N)c2c(Nc3ccc(O)cc3)nc3ccccc3c21
assignedClass: Yes
//
cpdSmiles: CSc1ccc(Nc2nc3ccccc3c3c2c(N)nn3C)cc1
assignedClass: No
